Where do the numbers come from? From patent US20040039049A1.

experiment: Stability on storage (related substances and decomposition products); assay type: physicochemical; settings: t = 0; unit assumed
assay-metric: Decomposition Products D.P. I
# output: number + unit

Task: Report Decomposition Products D.P. I for C/C(=C\C(=O)OCCCCCCCCC(=O)[O-])C[C@@H]1OC[C@H](C[C@@H]2O[C@H]2[C@@H](C)[C@H](C)O)[C@@H](O)[C@H]1O.C/C(=C\C(=O)OCCCCCCCCC(=O)[O-])C[C@@H]1OC[C@H](C[C@@H]2O[C@H]2[C@@H](C)[C@H](C)O)[C@@H](O)[C@H]1O.[Ca+2] [amorphous calcium pseudomonate, calcium pseudomonate] please.
Output: 0.44%
